Assay: amyloid nucleation score (Sup35N fusion, yeast selection) (log enrichment); library NNK3; higher = more nucleation; inactive = no reads after selection;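 further: zero at mode of non-aggregating sequences after 7 days selection at 30°C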
observation type: amyloid nucleation score

Reference set, count: 5
> print(dat)
              substance          observation.type    result
1          QDKMSMYTYMMR  amyloid nucleation score  inactive
2  SSFFRMLVLIVMRCQDTSNR  amyloid nucleation score  inactive
3  TYLCFYTKRPDAVYWSTLDH  amyloid nucleation score  inactive
4          VVLCVLEYYKFF  amyloid nucleation score     0.848
5    FYYLTKSGYAFRLSKTSP  amyloid nucleation score  inactive

// next item, amyloid nucleation score requested
**Query** What value of amyloid nucleation score has been recorded for this entry: VPTVRLTSSSFL
**Result** inactive

====

Assay: amyloid nucleation score (Sup35N fusion, yeast selection) (log enrichment); library NNK3; higher = more nucleation; inactive = no reads after selection
observation type: amyloid nucleation score

> print(dat)
              substance          observation.type    result
1      PSVPSNHLDCYLTWGT  amyloid nucleation score  inactive
2          FCYSDFIPLWIR  amyloid nucleation score  inactive
3  CFNYRLDFTQNWYMLIQCCH  amyloid nucleation score     0.867
4  TFFEVGRQYELAVGKSRSSM  amyloid nucleation score  inactive
5  CICKFTDLMHTGACLNILSR  amyloid nucleation score      1.58

**Query** Reported amyloid nucleation score for GICNQNIPQRGSMWLVSKTF : what is it?
**Result** inactive

**Query** Fill in: amyloid nucleation score of ARDCGRFIFLWWRYSLTKRH is ___
**Result** inactive

**Query** For the substance shown here, GTYLGELVTGLTPGRCPGHF , give the reported amyloid nucleation score.
**Result** inactive

**Query** Name the reported amyloid nucleation score value associated with the substance EMVITWCLRMLSQAMLGGYS
**Result** inactive

**Query** Using the record for FSYSSRGVYYG , report its amyloid nucleation score.
**Result** -0.649

**Query** Which amyloid nucleation score value belongs to CLNGPFVCLKYYVCFIAMMF ?
**Result** inactive

**Query** If you can, please state the reported amyloid nucleation score value of AYMVTKLVKR .
**Result** inactive

**Query** Need amyloid nucleation score, item WRDRNF
**Result** 1.3

**Query** Quick check: amyloid nucleation score of VLSVLFFLLLSPPIRFQVEG ?
**Result** inactive

**Query** Which amyloid nucleation score is reported for this substance? CIWHLHLLFLEGVYV
**Result** inactive

**Query** Would you mind telling me what amyloid nucleation score value was observed for SEMHRERDTMCKVLPDNDKN ?
**Result** inactive

**Query** If you can, please state the reported amyloid nucleation score value of LFYCSNCGKGIIQLRVGLYP .
**Result** inactive

**Query** Need amyloid nucleation score of ALSPHSNCIYNCLSCCCDTD , thanks.
**Result** 0.655

**Query** What value of measured amyloid nucleation score is listed for DVSLVGSVMRIELLEMCVSR ?
**Result** inactive

**Query** Param item = FVSPNLIVMVWVHWRSEINR ; retrieve measured amyloid nucleation score.
**Result** inactive

**Query** Field request: amyloid nucleation score | item: GLSVVYSNRYNTWVRDLKDW
**Result** 0.376

**Query** I would be grateful if you could share the reported amyloid nucleation score for NKKSSAMYCQGIFLTFILLV .
**Result** inactive

**Query** I would be grateful if you could share the reported amyloid nucleation score for SGLIQNTRR .
**Result** -0.428

**Query** Give its amyloid nucleation score value. Item: IGGRKALAALSVYHNVMRCL
**Result** inactive

Data origin: the supplement of paper PMC12042874
